assay: Displacement of [125I]-TZDM from amyloid beta 1 to 42 after 2 hrs by gamma counting
measurement.name: inhibition

Below are worked cases with known answers.
Qu. Fill in reported inhibition for this entry: Cc1ccc(/C=C/c2ccc(-c3ccc(I)s3)s2)cc1
Ans. Dose-dependent effect

Qu. Output measured inhibition for this item: O=[N+]([O-])c1ccc(/C=C/c2ccc(-c3cccs3)s2)cc1
Ans. Dose-dependent effect

Qu. Respond only with inhibition recorded for CC(C)(C)c1ccc(/C=C/c2ccc(-c3cccs3)s2)cc1
Ans. Dose-dependent effect

Qu. Look up and report measured inhibition for this entry: COc1ccc(/C=C/c2ccc(-c3cccs3)s2)cc1
Ans. Dose-dependent effect

Please find the next compound below.
Qu. Determine its reported inhibition: CC(C)(C)c1ccc(/C=C/c2ccc(-c3ccc(Br)s3)s2)cc1
Ans. Dose-dependent effect

// provenance: ChEMBL document CHEMBL1795269
